# assay system: T1, human LAG3 expressed on the cell surface (CHO-LAG3, 293T-LAG3 cells) (human, UniProt P18627 23-525)
# T1 construct: Stably transfected CHO or HEK293T cells; also called Human LAG3 (CHO); Human LAG3 (293T)
# T1 sequence: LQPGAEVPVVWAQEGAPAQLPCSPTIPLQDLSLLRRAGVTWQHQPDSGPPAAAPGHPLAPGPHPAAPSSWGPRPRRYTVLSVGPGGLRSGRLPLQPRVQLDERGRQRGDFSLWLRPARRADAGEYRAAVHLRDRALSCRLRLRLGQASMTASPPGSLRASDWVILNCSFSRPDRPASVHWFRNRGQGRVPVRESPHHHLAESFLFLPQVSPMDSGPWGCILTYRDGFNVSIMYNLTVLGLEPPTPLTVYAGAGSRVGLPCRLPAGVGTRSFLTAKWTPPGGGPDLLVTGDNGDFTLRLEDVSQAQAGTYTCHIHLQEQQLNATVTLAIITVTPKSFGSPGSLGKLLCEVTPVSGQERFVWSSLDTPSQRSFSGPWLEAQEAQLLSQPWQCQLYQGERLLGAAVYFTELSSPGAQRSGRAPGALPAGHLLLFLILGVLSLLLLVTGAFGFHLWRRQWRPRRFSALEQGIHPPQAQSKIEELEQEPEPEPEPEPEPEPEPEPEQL
# assay name: flow cytometry, 293T cells expressing human LAG3
parameter measured: Kd (nM)
Quick reminder: number only, in nM, skip the unit.

In: Recorded Kd for SRP1627-B01 (scFv, V domains shown) VH: QVQLVQSGAEVKKPGSSVKVSCKASGFNITDLYMHWVRQAPGQGLEWIARIDPWNGDTEYAPKFQGRATITADESTSTAYMELSSLRSEDTAVYYCIASEMVDYWGQGTLVTVSS VL: DVVMTQSPLSLPVTLGQPASISCKSSQSLLDSDGKTYLNWFQQRPGQSPRRLIYLVSKLDSGVPDRFSGSGSGTDFTLKISRVEAEDVGVYYCSTYSHFPQTFGQGTKVEIK , please?
Out: 0.19
